Listing of entries alongside the reported max response.
# assayed-system: Nuclear receptor subfamily 1 group I member 2 (Rattus norvegicus) (UniProt Q9R1A7)
# Sequence (Q9R1A7 whole entry, looked up): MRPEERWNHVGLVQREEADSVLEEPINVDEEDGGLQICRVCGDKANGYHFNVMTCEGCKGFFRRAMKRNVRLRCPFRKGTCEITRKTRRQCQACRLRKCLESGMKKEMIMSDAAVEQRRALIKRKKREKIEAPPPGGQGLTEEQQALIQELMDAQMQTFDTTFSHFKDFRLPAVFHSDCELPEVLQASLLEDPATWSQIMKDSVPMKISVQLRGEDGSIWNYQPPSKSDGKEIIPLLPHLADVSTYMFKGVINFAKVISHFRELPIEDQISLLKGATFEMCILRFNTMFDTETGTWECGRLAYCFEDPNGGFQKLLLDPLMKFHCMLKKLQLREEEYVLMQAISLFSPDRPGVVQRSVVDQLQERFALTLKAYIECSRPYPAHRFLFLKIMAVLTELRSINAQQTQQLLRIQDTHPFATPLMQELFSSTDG
# protocol-text: qHTS assay for small molecule activators of the rat pregnane X receptor (rPXR) signaling pathway (AID 651751); also: 0% is about no effect
# test-context: rPXR reporter cells, luciferase (One-Glo), 24 h
observed-property: max response (%)

CCOC(=O)[C@H](C)Oc1ccc(Oc2nc3ccc(Cl)cc3o2)cc1 ... -0.698
CCCCCCCCCCCCCCCO ... 3.48
COC(=O)CCSCCC(=O)OC ... 0.101
CNc1nc(=O)n(C2CCCCC2)c(=O)n1C ... -0.0446
CC1(C)C(=O)N(Br)C(=O)N1Cl ... 1.46
O=S(=O)(O)c1ccc(N=Nc2cc(S(=O)(=O)O)c3ccccc3c2O)c2ccccc12 ... -7.09
CN(C)Cc1cc(CN(C)C)c(O)c(CN(C)C)c1 ... 1.59
O=C(OCCOCCOC(=O)c1ccccc1)c1ccccc1 ... 2.6
CCCCCCOCCOCCO ... -1.74
Cc1ccc(N=Nc2c(O)ccc3ccccc23)c(C)c1 ... 13.1
CCCCCCCCCCCCCc1ccccc1 ... 0.527
COc1nc(C)nc(NC(=O)NS(=O)(=O)c2ccccc2OCCCl)n1 ... 5.75
CCCCC(CC)COC(C)=O (stereo not drawn) ... -1.91
